Where do these numbers come from? They come from patent US20260028403A1.

pKd reference
biological target: huCD28 (human, UniProt P10747 19-152, limits assumed); experiment: SPR, OAA format
pKd: −log10 of the molar value.

{"Binder": "v37847 (antibody, V domains shown, OAA format; also called huTN228 P1058A (VH) OAA) VH: QVQLQESGPGLVKPSETLSLTCAVSGFSLTSYGVHWIRQPPGKGLEWLGVIWAGGGTNFNSALMSRLTISEDTSKNQVSLKLSSVTAADTAVYYCARDRAYGNYLYAMDYWGQGTLVTVSS VL: DIQMTQSPSSLSASVGDRVTITCRASESVEYYVTSLMQWYQQKPGKAPKLLIYAASNVDSGVPSRFSGSGSGTDFTLTISSLQPEDIATYYCQQSRKVPFTFGGGTKVEIK", "pKd": 6.91}
{"Binder": "v37858 (antibody, V domains shown, OAA format as v34891; also called huTN228 L1112AA (VH) OAA) VH: QVQLQESGPGLVKPSETLSLTCAVSGFSLTSYGVHWIRQPPGKGLEWLGVIWPGGGTNFNSALMSRLTISEDTSKNQVSLKLSSVTAADTAVYYCARDRAYGNYAYAMDYWGQGTLVTVSS VL: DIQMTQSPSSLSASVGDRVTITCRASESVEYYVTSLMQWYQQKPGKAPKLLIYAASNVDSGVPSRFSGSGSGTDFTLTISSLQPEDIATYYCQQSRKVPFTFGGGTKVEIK", "pKd": 6.46}
{"Binder": "v37869 (antibody, V domains shown, OAA format as v34891; also called huTN228 V1035A (VL) OAA) VH: QVQLQESGPGLVKPSETLSLTCAVSGFSLTSYGVHWIRQPPGKGLEWLGVIWPGGGTNFNSALMSRLTISEDTSKNQVSLKLSSVTAADTAVYYCARDRAYGNYLYAMDYWGQGTLVTVSS VL: DIQMTQSPSSLSASVGDRVTITCRASESVEYYATSLMQWYQQKPGKAPKLLIYAASNVDSGVPSRFSGSGSGTDFTLTISSLQPEDIATYYCQQSRKVPFTFGGGTKVEIK", "pKd": 6.37}
{"Binder": "v37883 (antibody, V domains shown, OAA format as v34891; also called huTN228 N1111AQ (VH) OAA) VH: QVQLQESGPGLVKPSETLSLTCAVSGFSLTSYGVHWIRQPPGKGLEWLGVIWPGGGTNFNSALMSRLTISEDTSKNQVSLKLSSVTAADTAVYYCARDRAYGQYLYAMDYWGQGTLVTVSS VL: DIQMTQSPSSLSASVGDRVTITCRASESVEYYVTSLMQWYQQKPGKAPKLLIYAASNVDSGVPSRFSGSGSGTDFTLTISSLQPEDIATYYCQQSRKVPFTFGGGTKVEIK", "pKd": 6.47}
{"Binder": "v37870 (antibody, V domains shown, OAA format as v34891; also called huTN228 T1036A (VL) OAA) VH: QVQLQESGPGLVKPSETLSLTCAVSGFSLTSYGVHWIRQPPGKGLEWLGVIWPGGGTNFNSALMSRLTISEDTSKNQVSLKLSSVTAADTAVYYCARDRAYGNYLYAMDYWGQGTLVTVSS VL: DIQMTQSPSSLSASVGDRVTITCRASESVEYYVASLMQWYQQKPGKAPKLLIYAASNVDSGVPSRFSGSGSGTDFTLTISSLQPEDIATYYCQQSRKVPFTFGGGTKVEIK", "pKd": 6.57}
